Test: Urinary excretion of phenolic metabolites after intake of the GCPE nutraceutical
Conditions: week 8, interval 6–9 h
Observable: Amount excreted in urine, 6-9 h (µmol)

# Compound, Units, Amount excreted in urine, 6-9 h
measured = [
    ("O=C(O)CNC(=O)c1cccc(O)c1 [3′-Hydroxyhippuric acid]", "µmol", 6),
    ("COc1cc(CCC(=O)OC2CC(O)(C(=O)O)CC(O)C2O)ccc1O (stereo not shown) [5-Dihydroferuloylquinic acid]", "µmol", 0.03),
    ("COc1cc(CCC(=O)OC2CC(O)(C(=O)O)CC(O)C2O)ccc1O (stereo not shown) [3-Dihydroferuloylquinic acid]", "µmol", 0.08),
    ("COc1cc(CCC(=O)O)ccc1OS(=O)(=O)O [DHFA-4′-sulfate]", "µmol", 2),
    ("O=C(/C=C/c1ccc(O)c(O)c1)O[C@@H]1C[C@](O)(C(=O)O)C[C@@H](O)[C@H]1O [3-Caffeoylquinic acid]", "µmol", 0.028),
]

[P] COc1ccc(CCC(=O)O)cc1OC [Dihydrodimethoxycinnamic acid, 3-(3′,4′-Dimethoxyphenyl)propanoic acid]
[Q] COc1cc(/C=C/C(=O)O[C@@H]2C[C@@](O)(C(=O)O)C[C@@H](O)[C@@H]2O)ccc1O [5-Feruloylquinic acid]
Looking at P and Q , which one comes out lower in Amount excreted in urine, 6-9 h terms? // output: label of the selected item
P
